Target: TbMCP-1 (Trypanosoma brucei, UniProt Q386R0)
Sequence (Q386R0 entry or part of it): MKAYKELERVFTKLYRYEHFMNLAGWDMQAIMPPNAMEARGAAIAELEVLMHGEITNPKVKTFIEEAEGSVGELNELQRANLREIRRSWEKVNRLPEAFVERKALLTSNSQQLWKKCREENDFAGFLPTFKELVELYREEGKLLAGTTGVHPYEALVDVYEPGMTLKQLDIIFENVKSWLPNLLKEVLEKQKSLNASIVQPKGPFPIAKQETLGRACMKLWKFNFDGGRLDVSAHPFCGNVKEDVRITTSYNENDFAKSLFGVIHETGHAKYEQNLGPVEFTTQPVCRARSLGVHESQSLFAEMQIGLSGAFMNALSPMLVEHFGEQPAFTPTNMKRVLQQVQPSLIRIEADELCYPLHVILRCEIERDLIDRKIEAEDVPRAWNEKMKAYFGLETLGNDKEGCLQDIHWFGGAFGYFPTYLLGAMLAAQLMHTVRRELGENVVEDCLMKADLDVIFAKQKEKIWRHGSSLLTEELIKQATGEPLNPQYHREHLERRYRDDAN
Assay text: Continuous fluorogenic (FRET) TbMCP-1 assay with Abz-RFFK(Dnp)-OH, primary and secondary screening
Type: biochemical
Settings: single inhibitor concentration 31,5 µM
Attribute measured: TbMCP-1 Secondary screening Inhibition (%)

Enter measured TbMCP-1 Secondary screening Inhibition (%), system TbMCP-1 (Trypanosoma brucei, UniProt Q386R0), for the compound shown: `CC(=O)Nc1cccc(Nc2ncnc3nc[nH]c23)c1`
8,15%

With TbMCP-1 (Trypanosoma brucei, UniProt Q386R0) as the test system, provide measured TbMCP-1 Secondary screening Inhibition (%) for this compound: `Cl.Cl.O=c1cc(NCCCNCc2cc(C(F)(F)F)cs2)[nH]c2ccccc12`
54,13%

Report TbMCP-1 Secondary screening Inhibition (%) from TbMCP-1 (Trypanosoma brucei, UniProt Q386R0) testing of Cc1c([N+](=O)[O-])c(C(=O)Nc2sc3c(c2C#N)CCC(C)C3)nn1C (stereo not shown)
10,36%

Report its TbMCP-1 Secondary screening Inhibition (%) with TbMCP-1 (Trypanosoma brucei, UniProt Q386R0) as the test system: Cc1ccc2c(c1)-c1onc(C(=O)N3CCCCC3c3cccnc3)c1CO2 (stereo not shown)
69,40%

Specify TbMCP-1 Secondary screening Inhibition (%) for `O=C(Nc1nc2cc(Cl)ccc2o1)c1cccc(Cl)c1` , system TbMCP-1 (Trypanosoma brucei, UniProt Q386R0).
-1,57%

Jot down TbMCP-1 Secondary screening Inhibition (%) (TbMCP-1 (Trypanosoma brucei, UniProt Q386R0)) of `N#Cc1cc([N+](=O)[O-])ccc1NC1CCCCCC1` .
66,27%

Give TbMCP-1 Secondary screening Inhibition (%); test system TbMCP-1 (Trypanosoma brucei, UniProt Q386R0); compound O=C(c1cc2cc(Cl)ccc2[nH]1)N1CCCCC1c1cccnc1 (stereo not shown)
13,07%

Provide measured TbMCP-1 Secondary screening Inhibition (%) on TbMCP-1 (Trypanosoma brucei, UniProt Q386R0) for `COc1ccc2ncc(Cl)c(CCN3CC[C@@H](NCc4cc5c(cn4)OCS5)[C@H](O)C3)c2n1` please.
42,64%

Identify measured TbMCP-1 Secondary screening Inhibition (%) obtained with TbMCP-1 (Trypanosoma brucei, UniProt Q386R0) for `C[C@@H](Oc1cc(-n2cnc3ccc(O[C@H]4CCNC4)cc32)sc1C(N)=O)c1ccccc1Cl` .
50,90%

Print TbMCP-1 (Trypanosoma brucei, UniProt Q386R0) TbMCP-1 Secondary screening Inhibition (%) for Cl.Cl.O=c1ccc2ccc(F)c3c2n1C[C@H]3CN1CCN(CC(O)c2cc3c(cn2)OCS3)CC1 (stereo partly shown) .
53,51%

Fill in TbMCP-1 Secondary screening Inhibition (%) for CCC1Oc2cc(S(=O)(=O)N(C)CC(=O)N3CCc4ccccc4C3)c(C)cc2NC1=O (stereo not shown) tested with TbMCP-1 (Trypanosoma brucei, UniProt Q386R0).
57,63%

Please report TbMCP-1 Secondary screening Inhibition (%) with TbMCP-1 (Trypanosoma brucei, UniProt Q386R0) for item `Cc1cc(C)c(C#N)c(SCC(=O)c2ccc3c(c2)OCO3)n1` .
17,11%

Give reported TbMCP-1 Secondary screening Inhibition (%) for `Cc1c(Nc2cc(C3CC3)n[nH]2)ccc(C#N)c1Cl.O=C(O)C(F)(F)F` (TbMCP-1 (Trypanosoma brucei, UniProt Q386R0))
33,23%
